# System: Human normal fibroblast cell line (WI-38)
# testSummary: cells
# Assay type: cell-based
Record form. Attribute: IC50. Fill in for each entry.

{"compound": "C[C@H]1[C@H](C)CC[C@]2(C(=O)O)CC[C@]3(C)C(=CC[C@@H]4[C@@]5(C)CC[C@H](OC(=O)CCc6ccc(F)cc6)C(C)(C)C5CC[C@]43C)[C@H]12 (stereo partly shown)", "observed": "> 165 µM"}

Go through the items and report each one's IC50.
1. C[C@H]1[C@H](C)CC[C@]2(C(=O)O)CC[C@]3(C)C(=CC[C@@H]4[C@@]5(C)CC[C@H](OC(=O)CCc6ccccc6F)C(C)(C)C5CC[C@]43C)[C@H]12 (stereo partly shown)
2. C[C@H]1[C@H](C)CC[C@]2(C(=O)O)CC[C@]3(C)C(=CC[C@@H]4[C@@]5(C)CC[C@H](OC(=O)CCc6ccccc6)C(C)(C)C5CC[C@]43C)[C@H]12 (stereo partly shown) [Derivative (II-1), 3-O-hydrocinnamic ursolic acid]
3. C[C@H]1[C@H](C)CC[C@]2(C(=O)O)CC[C@]3(C)C(=CC[C@@H]4[C@@]5(C)CC[C@H](OC(=O)CCc6cccc(F)c6)C(C)(C)C5CC[C@]43C)[C@H]12 (stereo partly shown)

> 132 µM
142 µM
> 165 µM
